target: UniProt Q12809; assay: HERG safety study (whole cell recordings, CHO cells); details: CHO cells stably expressing hERG channels, pH 7.4
Sequence (Q12809 whole entry): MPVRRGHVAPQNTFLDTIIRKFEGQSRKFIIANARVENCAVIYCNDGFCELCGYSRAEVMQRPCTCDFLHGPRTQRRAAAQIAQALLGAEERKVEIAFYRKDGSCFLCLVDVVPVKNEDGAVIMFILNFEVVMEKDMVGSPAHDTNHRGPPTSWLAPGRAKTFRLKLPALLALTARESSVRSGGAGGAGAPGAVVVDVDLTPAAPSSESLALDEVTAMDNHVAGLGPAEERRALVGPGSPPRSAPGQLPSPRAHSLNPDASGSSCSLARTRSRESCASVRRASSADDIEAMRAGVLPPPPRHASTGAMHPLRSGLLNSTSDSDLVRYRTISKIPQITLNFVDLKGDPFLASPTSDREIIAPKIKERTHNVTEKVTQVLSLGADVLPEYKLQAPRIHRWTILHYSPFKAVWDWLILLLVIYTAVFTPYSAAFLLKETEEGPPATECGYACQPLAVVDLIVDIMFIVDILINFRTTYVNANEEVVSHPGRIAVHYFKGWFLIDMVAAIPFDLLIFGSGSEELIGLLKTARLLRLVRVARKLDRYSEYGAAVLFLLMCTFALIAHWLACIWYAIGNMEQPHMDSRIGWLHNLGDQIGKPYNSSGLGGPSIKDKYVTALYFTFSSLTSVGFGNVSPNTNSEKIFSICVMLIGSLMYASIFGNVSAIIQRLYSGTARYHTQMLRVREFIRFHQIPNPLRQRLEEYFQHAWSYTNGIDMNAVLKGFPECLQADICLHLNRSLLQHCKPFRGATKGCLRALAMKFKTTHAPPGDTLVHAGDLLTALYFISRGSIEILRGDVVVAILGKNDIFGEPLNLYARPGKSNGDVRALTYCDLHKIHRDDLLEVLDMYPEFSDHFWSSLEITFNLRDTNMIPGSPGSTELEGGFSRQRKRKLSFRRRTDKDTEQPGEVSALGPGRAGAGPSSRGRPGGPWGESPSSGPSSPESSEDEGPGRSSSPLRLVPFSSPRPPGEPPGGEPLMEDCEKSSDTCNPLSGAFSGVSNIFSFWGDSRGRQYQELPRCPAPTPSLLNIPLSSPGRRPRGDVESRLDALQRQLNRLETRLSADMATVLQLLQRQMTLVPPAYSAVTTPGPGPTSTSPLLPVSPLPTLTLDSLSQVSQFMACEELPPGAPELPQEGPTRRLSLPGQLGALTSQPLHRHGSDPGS
The compounds listed here are annotated with their inhibition at 1 µM.
Quantity: inhibition at 1 µM (%)

> print(dat)
                                    compound  reading
 1  CC(C)CNC(=O)c1ccc2c(c1)N=C(c1ccc(Cl)cc1)c1ccc(F)cc1S2 [drawing 1811]       58
 2  O=C(NC1CCCCC1)c1ccc2c(c1)N=C(c1ccc(F)cc1)c1ccccc1S2 [drawing 1814]       45
 3  O=C(NCCCC(F)(F)F)c1ccc2c(c1)N=C(c1cccc(F)c1)c1ccccc1S2 [drawing 1817]       45
 4  CC(C)CNC(=O)c1ccc2c(c1)N=C(c1ccc(Cl)c(Cl)c1)c1ccccc1S2 [drawing 1833]       16
 5  O=C(NCCCC(F)(F)F)c1ccc2c(c1)N=C(c1ccccn1)c1ccccc1S2 [drawing 1832]       28
 6  CCCCNC(=O)c1ccc2c(c1)N=C(c1ccc(Cl)cc1)c1ccccc1[S+]2[O-] (centres unmarked) [drawing 1840]       52
 7  Cc1ccc(CNC(=O)c2ccc3c(c2)N=C(c2ccc(Cl)s2)c2ccccc2S3)o1 [drawing 1836]       13
 8  CCCCNC(=O)c1ccc2c(c1)N=C(c1ccc(Cl)cn1)c1cc(F)ccc1S2 [drawing 1841]       52
 9  COc1cccc(C2=Nc3cc(C(=O)NCCCC(F)(F)F)ccc3Sc3ccccc32)n1 [drawing 1823]       35
10  CCCCNC(=O)c1ccc2c(c1)N=C(c1ccc(Cl)cn1)c1ccccc1S2 [drawing 1839]       67
11  O=C(NCCCC(F)(F)F)c1ccc2c(c1)N=C(c1ccc(Cl)s1)c1ccccc1S2 [drawing 1810]       14
12  O=C(NCc1cccnc1)c1ccc2c(c1)N=C(c1ccc(Cl)c(Cl)c1)c1ccccc1S2 [drawing 1830]       40
13  CCCCNC(=O)c1ccc2c(c1)N=C(c1ccc(Cl)s1)c1ccccc1S2 [drawing 1824]       14
14  O=C(NCCCC(F)(F)F)c1ccc2c(c1)N=C(c1ccc(Cl)cc1F)c1ccccc1S2 [drawing 1809]       24
15  CC(C)CNC(=O)c1ccc2c(c1)N=C(c1cccc(Cl)c1)c1ccccc1S2 [drawing 1819]       93
16  CCCCNC(=O)c1ccc2c(c1)N=C(c1ccc(Cl)cc1)c1ccc(F)cc1S2 [drawing 1821]       34
17  CC(C)CNC(=O)c1ccc2c(c1)N=C(c1ccc(Cl)s1)c1ccccc1S2 [drawing 1813]       26
18  CC(C)CCNC(=O)c1ccc2c(c1)N=C(c1ccccn1)c1ccccc1S2 [drawing 1842]       39
19  CCCCNC(=O)c1ccc2c(c1)N=C(c1ccc(Br)cn1)c1ccccc1S2 [drawing 1820]       78
20  O=C(NN1CCCCCC1)c1ccc2c(c1)N=C(c1cccc(Cl)c1)c1ccccc1S2 [drawing 1825]       97
21  CCCNC(=O)c1ccc2c(c1)N=C(c1ccc(Cl)cc1)c1ccccc1S2 [drawing 1826]       55
22  CCCCNC(=O)c1ccc2c(c1)N=C(c1ccc(Cl)cc1)c1ccccc1S2 [drawing 1812]       49
23  O=C(NN1CCCCCC1)c1ccc2c(c1)N=C(c1ccc(Cl)s1)c1ccccc1S2 [drawing 1816]       30
24  O=C(NCCCC(F)(F)F)c1ccc2c(c1)N=C(c1ccsc1)c1ccccc1S2 [drawing 1837]       28
25  O=C(NN1CCCCC1)c1ccc2c(c1)N=C(c1ccc(Cl)cc1)c1ccccc1S2 [drawing 1831]       92
26  O=C(NN1CCCCC1)c1ccc2c(c1)N=C(C1CCCCC1)c1ccccc1S2 [drawing 1828]       29
27  CC(C)CNC(=O)c1ccc2c(c1)N=C(c1ccc(Cl)cc1F)c1ccccc1S2 [drawing 1835]       41
28  O=C(NC1CCCCC1)c1ccc2c(c1)N=C(c1cccc(Cl)c1)c1ccccc1S2 [drawing 1834]       44
29  CC(C)CCNC(=O)c1ccc2c(c1)N=C(c1cccc(Cl)c1)c1ccccc1S2 [drawing 1822]       59

###

The compounds listed here are annotated with their log10 of IC50.
biological target: CB1 (mutant) (Homo sapiens, UniProt P21554); assay: R-SAT functional receptor assay, CB1 (mutant, truncated after amino acid 417); format: cell-based; settings: Appendix A; R-SAT CB1; receptor form (mutant or wild-type) not stated; read-out: pIC50 (converted)
Sequence (P21554 1-417, change not shown): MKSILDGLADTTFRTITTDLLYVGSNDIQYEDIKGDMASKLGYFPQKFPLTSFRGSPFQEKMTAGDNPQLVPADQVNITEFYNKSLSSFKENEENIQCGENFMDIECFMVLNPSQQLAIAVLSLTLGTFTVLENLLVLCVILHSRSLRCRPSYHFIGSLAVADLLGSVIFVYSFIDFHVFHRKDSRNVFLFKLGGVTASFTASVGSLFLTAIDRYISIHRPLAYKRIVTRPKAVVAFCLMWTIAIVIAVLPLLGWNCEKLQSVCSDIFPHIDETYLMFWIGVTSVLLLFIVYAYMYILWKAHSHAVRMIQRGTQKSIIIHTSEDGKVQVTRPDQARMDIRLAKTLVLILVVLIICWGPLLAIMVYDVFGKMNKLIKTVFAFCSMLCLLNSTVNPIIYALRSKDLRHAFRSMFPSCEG
Quantity: log10 of IC50 (log10 of the value in µM)

> print(dat)
                                   compound                                    system       quantity  reading
1  Cc1cc(Cl)ccc1C1=Nc2cc(C(=O)NC3CCCCC3)ccc2Sc2ccccc21  CB1 (mutant) (Homo sapiens, UniProt P21554)  log10 of IC50    -0.60
2  CCOCCNC(=O)c1ccc2c(c1)N=C(c1ccc(OC)cc1)c1ccccc1S2  CB1 (mutant) (Homo sapiens, UniProt P21554)  log10 of IC50    -1.10
3  CCCCNC(=O)c1ccc2c(c1)N=C(c1ccc(Cl)cc1)c1ccccc1S2(=O)=O  CB1 (mutant) (Homo sapiens, UniProt P21554)  log10 of IC50    -1.20
4  O=C(NCc1ccccc1)c1ccc2c(c1)N=C(c1ccc(Cl)cc1)c1ccccc1S2 [drawing 647]  CB1 (mutant) (Homo sapiens, UniProt P21554)  log10 of IC50    -2.30
5  Cc1ccc(CNC(=O)c2ccc3c(c2)N=C(c2ccc(Cl)c(Cl)c2)c2ccccc2S3)o1 [drawing 801]  CB1 (mutant) (Homo sapiens, UniProt P21554)  log10 of IC50    -2.00
6  COCCNC(=O)c1ccc2c(c1)N=C(c1ccc(Br)cc1)c1ccccc1S2 [drawing 1081]  CB1 (mutant) (Homo sapiens, UniProt P21554)  log10 of IC50    -1.50
7  O=C(NCCc1cccnc1)c1ccc2c(c1)N=C(c1ccc(Cl)s1)c1ccccc1S2 [drawing 1029]  CB1 (mutant) (Homo sapiens, UniProt P21554)  log10 of IC50    -1.60
8  CCOCCNC(=O)c1ccc2c(c1)N=C(N1CCCCC1)c1ccccc1S2  CB1 (mutant) (Homo sapiens, UniProt P21554)  log10 of IC50    -0.10

###

experiment: Clearance study, liver microsomes (human); settings: pH 7.4
The molecules listed here are annotated with their log10 of microsomal CLint at 1 μM.
Quantity: log10 of microsomal CLint at 1 μM (log10 of the value in µL/min/mg)

> print(dat)
                                    molecule  reading
 1  O=C(NCc1ccco1)c1ccc2c(c1)N=C(c1cccc(Cl)c1)c1ccccc1S2 [drawing 1684]     1.54
 2  O=C(NCc1cccs1)c1ccc2c(c1)N=C(c1ccc(Cl)cc1)c1ccccc1S2 [drawing 1735]     1.23
 3  O=C(NCCc1cccc(Cl)c1)c1ccc2c(c1)N=C(c1ccc(Cl)cc1)c1ccccc1S2 [drawing 1766]     1.75
 4  CC(C)CNC(=O)c1ccc2c(c1)N=C(c1ccsc1)c1ccccc1S2 [drawing 1753]     2.74
 5  CCCCNC(=O)c1ccc2c(c1)N=C(c1ccc(Cl)cc1)c1cc(F)ccc1S2 [drawing 1702]     1.08
 6  O=C(NCc1cccc(Cl)c1)c1ccc2c(c1)N=C(c1ccc(F)cc1)c1ccccc1[S+]2[O-] (centres unmarked) [drawing 1790]     1.38
 7  O=C(NC1CCC(F)(F)CC1)c1ccc2c(c1)N=C(c1ccc(Cl)s1)c1ccccc1S2 [drawing 1699]     1.30
 8  O=C(NN1CCCCC1)c1ccc2c(c1)N=C(N1CCCCC1)c1ccccc1S2 [drawing 1792]     1.73
 9  CCCCNC(=O)c1ccc2c(c1)N=C(c1ccc(Cl)cc1)c1ccccc1[S+]2[O-] (centres unmarked) [drawing 1736]     1.49
10  O=C(NCCc1cccnc1)c1ccc2c(c1)N=C(c1ccc(Cl)c(Cl)c1)c1ccccc1S2 [drawing 1668]     1.61
11  O=C(NCc1cccs1)c1ccc2c(c1)N=C(c1ccccc1F)c1ccccc1S2 [drawing 1744]     1.95
12  O=C(NCc1ccc(F)cc1)c1ccc2c(c1)N=C(c1ccc(Cl)cc1)c1ccccc1S2(=O)=O [drawing 1776]     1.11
13  O=C(NCc1cccs1)c1ccc2c(c1)N=C(c1cccc(F)c1)c1ccccc1S2 [drawing 1658]     1.75
14  O=C(NCCC(F)(F)F)c1ccc2c(c1)N=C(c1cccc(Cl)c1)c1ccccc1S2 [drawing 1721]     1.26
15  CCCCNC(=O)c1ccc2c(c1)N=C(c1ccc(Cl)cn1)c1ccc(F)cc1S2 [drawing 1778]     1.46
16  CC(C)CNC(=O)c1ccc2c(c1)N=C(c1ccc(F)cc1)c1ccccc1S2 [drawing 1761]     1.63
17  Cc1ccsc1C1=Nc2cc(C(=O)NN3CCCCCC3)ccc2Sc2ccccc21 [drawing 1706]     2.07
